Form field: PBM binding z-score (one value per entry).
Test system: VDR homodimer (NR concentration 270 nM)
Experiment notes: PBM binding z-score (relative to random genomic background probes); higher = stronger binding; sequences stand for … in GC…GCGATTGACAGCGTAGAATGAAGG

// known answers, use as guide
{"columns": ["Residue sequence", "Readout value"],
 "data": [
  ["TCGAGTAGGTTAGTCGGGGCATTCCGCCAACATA", -0.0294],
  ["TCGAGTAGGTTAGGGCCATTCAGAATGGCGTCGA", -0.211],
  ["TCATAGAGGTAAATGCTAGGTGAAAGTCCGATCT", -0.248]
]}

Exam item: Read off the recorded PBM binding z-score for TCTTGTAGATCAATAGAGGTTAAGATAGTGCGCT
Marked response: 0.0861

Exam item: Return PBM binding z-score for the following sequence: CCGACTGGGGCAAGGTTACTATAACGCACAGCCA
Marked response: 0.00113

Exam item: Write down PBM binding z-score measured for item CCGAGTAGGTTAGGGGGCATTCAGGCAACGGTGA
Marked response: 2.8

Exam item: Read the entry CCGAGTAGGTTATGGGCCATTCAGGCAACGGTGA and write its reported PBM binding z-score.
Marked response: -0.0394

Exam item: Identify the reported PBM binding z-score for the following entry. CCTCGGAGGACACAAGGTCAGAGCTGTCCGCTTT
Marked response: 0.992
